# assay_text: Physicochemical input parameters
# details: pKa2 (base)
reported_property: pKa

For reference, reported pKa for CCc1nc2c(C)cc(N3CCN(CC(=O)N4CC(O)C4)CC3)cn2c1N(C)c1nc(-c2ccc(F)cc2)c(C#N)s1 stands at 5.89

###

# target_entity: UniProt P08183
# Sequence (P08183 whole entry): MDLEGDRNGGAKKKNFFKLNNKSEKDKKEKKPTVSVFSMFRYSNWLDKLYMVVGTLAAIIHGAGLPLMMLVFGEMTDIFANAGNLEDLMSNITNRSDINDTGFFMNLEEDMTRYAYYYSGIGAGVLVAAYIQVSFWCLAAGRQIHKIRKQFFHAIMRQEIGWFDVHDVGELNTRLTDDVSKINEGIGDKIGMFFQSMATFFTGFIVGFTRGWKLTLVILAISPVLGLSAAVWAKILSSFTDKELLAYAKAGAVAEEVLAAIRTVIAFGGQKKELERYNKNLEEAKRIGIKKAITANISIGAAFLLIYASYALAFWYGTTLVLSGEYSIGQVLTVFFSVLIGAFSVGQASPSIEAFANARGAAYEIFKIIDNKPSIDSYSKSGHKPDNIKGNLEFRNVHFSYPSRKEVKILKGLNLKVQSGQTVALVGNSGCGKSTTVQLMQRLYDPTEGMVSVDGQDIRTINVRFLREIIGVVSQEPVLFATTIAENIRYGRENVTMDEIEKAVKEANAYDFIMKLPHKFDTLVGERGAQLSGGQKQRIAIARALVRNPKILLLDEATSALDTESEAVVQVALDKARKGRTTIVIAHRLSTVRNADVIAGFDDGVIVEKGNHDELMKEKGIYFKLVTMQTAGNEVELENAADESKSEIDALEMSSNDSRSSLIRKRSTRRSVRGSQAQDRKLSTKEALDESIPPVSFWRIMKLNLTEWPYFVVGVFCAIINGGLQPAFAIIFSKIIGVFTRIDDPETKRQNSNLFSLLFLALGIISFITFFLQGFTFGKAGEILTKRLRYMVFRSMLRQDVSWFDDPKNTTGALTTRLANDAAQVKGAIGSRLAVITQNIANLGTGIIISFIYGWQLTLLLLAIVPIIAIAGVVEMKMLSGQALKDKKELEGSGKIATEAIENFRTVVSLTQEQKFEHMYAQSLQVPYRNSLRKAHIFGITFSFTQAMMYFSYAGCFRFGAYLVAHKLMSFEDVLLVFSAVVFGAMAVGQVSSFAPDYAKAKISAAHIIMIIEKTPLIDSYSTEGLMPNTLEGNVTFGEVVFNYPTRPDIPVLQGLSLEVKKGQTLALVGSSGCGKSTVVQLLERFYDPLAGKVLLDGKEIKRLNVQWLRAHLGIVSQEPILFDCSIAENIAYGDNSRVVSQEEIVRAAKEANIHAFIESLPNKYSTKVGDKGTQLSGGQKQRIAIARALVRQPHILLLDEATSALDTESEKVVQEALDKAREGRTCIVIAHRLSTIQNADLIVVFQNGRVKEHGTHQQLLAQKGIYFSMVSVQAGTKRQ
# assay_text: P-gp inhibition in P-gp-transfected cell monolayers
reported_property: IC50

For reference, reported IC50 for CCc1nc2c(C)cc(N3CCN(CC(=O)N4CC(O)C4)CC3)cn2c1N(C)c1nc(-c2ccc(F)cc2)c(C#N)s1 [Ziritaxestat, ziritaxestat] stands at > 40 µM

###

# target_entity: CYP2C9 (Homo sapiens)
# Sequence (P11712 whole entry): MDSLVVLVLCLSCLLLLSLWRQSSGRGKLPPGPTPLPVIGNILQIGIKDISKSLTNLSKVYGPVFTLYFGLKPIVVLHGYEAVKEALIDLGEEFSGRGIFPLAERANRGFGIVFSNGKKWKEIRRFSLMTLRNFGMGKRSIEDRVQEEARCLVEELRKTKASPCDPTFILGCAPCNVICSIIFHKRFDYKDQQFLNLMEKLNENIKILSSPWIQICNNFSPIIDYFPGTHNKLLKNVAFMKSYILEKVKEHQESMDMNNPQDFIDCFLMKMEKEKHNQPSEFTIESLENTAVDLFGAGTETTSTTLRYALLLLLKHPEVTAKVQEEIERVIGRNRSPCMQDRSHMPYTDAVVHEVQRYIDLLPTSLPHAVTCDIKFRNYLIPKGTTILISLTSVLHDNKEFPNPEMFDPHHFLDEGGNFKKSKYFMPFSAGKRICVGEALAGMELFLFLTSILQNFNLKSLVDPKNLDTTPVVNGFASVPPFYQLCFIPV
reported_property: IC50 (µM)
The response must be a number in µM with no trailing unit.

// IC50 (CYP2C9 (Homo sapiens)) for CCc1nc2c(C)cc(N3CCN(CC(=O)N4CC(O)C4)CC3)cn2c1N(C)c1nc(-c2ccc(F)cc2)c(C#N)s1 = 13.1
